Data provenance is patent US20240239886A1.

# assay-target: T1, recombinant protein consisting of the extracellular domain of human TREM2 fused to the His tag (human, UniProt Q9NZC2 19-174)
# T1 construct: also called His tagged hTREM2; His-TREM2
# T1 sequence: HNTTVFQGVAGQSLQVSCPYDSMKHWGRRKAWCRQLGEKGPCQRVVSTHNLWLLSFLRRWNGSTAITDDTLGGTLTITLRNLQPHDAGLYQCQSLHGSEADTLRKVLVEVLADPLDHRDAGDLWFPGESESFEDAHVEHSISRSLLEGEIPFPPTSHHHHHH
# test-description: direct ELISA, coated His-TREM2 0.5 ug/mL, Ab stock 1 mg/mL
experimental-readout: OD at dilution 6561000 (OD)

binder	experimental-readout	unit-annotation	recorded-value
83E10B12 (antibody, V domains shown, Biotin conjugated in sup ELISA, cell-based ELISA and flow cytometry) VH: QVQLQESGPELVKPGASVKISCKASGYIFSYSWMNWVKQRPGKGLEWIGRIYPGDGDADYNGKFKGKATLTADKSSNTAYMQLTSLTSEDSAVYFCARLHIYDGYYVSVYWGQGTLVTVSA VL: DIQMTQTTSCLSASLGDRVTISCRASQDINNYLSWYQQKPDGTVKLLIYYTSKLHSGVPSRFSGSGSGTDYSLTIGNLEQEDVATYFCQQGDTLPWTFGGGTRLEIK	OD at dilution 6561000	OD	0.07
61B11C9 (antibody, V domains shown, Biotin conjugated in sup ELISA, cell-based ELISA and flow cytometry) VH: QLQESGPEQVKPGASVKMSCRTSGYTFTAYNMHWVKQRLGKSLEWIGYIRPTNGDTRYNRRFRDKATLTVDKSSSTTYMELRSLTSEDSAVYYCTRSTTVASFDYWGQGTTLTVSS VL: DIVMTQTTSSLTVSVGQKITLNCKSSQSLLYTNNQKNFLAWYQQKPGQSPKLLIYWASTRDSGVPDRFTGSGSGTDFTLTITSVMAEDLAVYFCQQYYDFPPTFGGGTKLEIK	OD at dilution 6561000	OD	0.099
54H2C1 (antibody, V domains shown, Biotin conjugated in sup ELISA, cell-based ELISA and flow cytometry) VH: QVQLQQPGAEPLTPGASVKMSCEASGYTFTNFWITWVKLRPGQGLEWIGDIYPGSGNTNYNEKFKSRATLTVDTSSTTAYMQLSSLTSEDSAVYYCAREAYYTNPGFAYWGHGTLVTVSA VL: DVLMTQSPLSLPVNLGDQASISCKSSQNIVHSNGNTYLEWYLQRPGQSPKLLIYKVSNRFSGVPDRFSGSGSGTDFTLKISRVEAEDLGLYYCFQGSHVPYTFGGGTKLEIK	OD at dilution 6561000	OD	0.087
60H4G2 (antibody, V domains shown, Biotin conjugated in sup ELISA, cell-based ELISA and flow cytometry) VH: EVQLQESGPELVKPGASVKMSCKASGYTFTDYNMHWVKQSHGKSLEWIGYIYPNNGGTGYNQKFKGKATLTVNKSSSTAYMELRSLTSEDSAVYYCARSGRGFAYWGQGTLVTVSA VL: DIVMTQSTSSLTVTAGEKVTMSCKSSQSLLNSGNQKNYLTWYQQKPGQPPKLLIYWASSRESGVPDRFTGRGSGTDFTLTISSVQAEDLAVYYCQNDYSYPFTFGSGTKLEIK	OD at dilution 6561000	OD	0.102
